System: tet operator sequence
assay_comment: β-galactosidase activity of a tetracycline-regulated promoter in transformed E. coli with revTetR, in the presence and absence of anhydrotetracycline (atc)
Assay type: cell-based, Escherichia coli
experimental_setup: RevTetR isolate cultured in the absence of anhydrotetracycline (ATC)
Assign labels as follows, please: label 1 for β-Galactosidase Activity, Cultured Without ATC below 90; label 0 for β-Galactosidase Activity, Cultured Without ATC equal to or exceeding 90.

Field: example entries. Status: answers known.
molecule	cat
TetRrev96/99-16: revTetR(BD) G96P V99Y (protein, Modified tetracycline repressor, revTetR(BD) G96P V99Y) MSRLDKSKVINSALELLNEVGIEGLTTRKLAQKLGVEQPTLYWHVKNKRALLDALAVEILARHHDYSLPAAGESWQSFLRNNAMSFRRALLRYRDPAKYHLGTRPDEKQYDTVETQLRFMTENGFSLRDGLYAISAVSHFTLGAVLEQQEHTAALTDRPAAPDENLPPLLREALQIMDSDDGEQAFLHGLESLIRGFEVQLTALLQIV	label 0
TetRrev28/30: revTetR(BD) V20G G21A I22I E23G (protein, Modified tetracycline repressor, revTetR(BD) V20G G21A I22I E23G) MSRLDKSKVINSALELLNEGAIGGLTTRKLAQKLGVEQPTLYWHVKNKRALLDALAVEILARHHDYSLPAAGESWQSFLRNNAMSFRRALLRYRDGAKVHLGTRPDEKQYDTVETQLRFMTENGFSLRDGLYAISAVSHFTLGAVLEQQEHTAALTDRPAAPDENLPPLLREALQIMDSDDGEQAFLHGLESLIRGFEVQLTALLQIV	label 1
TetRrevAF5/13: revTetR(BD) L14L V20G V99E (protein, Modified tetracycline repressor, revTetR(BD) L14L V20G V99E) MSRLDKSKVINSALELLNEGGIEGLTTRKLAQKLGVEQPTLYWHVKNKRALLDALAVEILARHHDYSLPAAGESWQSFLRNNAMSFRRALLRYRDGAKEHLGTRPDEKQYDTVETQLRFMTENGFSLRDGLYAISAVSHFTLGAVLEQQEHTAALTDRPAAPDENLPPLLREALQIMDSDDGEQAFLHGLESLIRGFEVQLTALLQIV	label 0

Decide: β-Galactosidase Activity, Cultured Without ATC of TetRrev4/6-6: revTetR(BD) D53Y V57V A61P (protein, Modified tetracycline repressor, revTetR(BD) D53Y V57V A61P) MSRLDKSKVINSALELLNEVGIEGLTTRKLAQKLGVEQPTLYWHVKNKRALLYALAVEILPRHHDYSLPAAGESWQSFLRNNAMSFRRALLRYRDGAKVHLGTRPDEKQYDTVETQLRFMTENGFSLRDGLYAISAVSHFTLGAVLEQQEHTAALTDRPAAPDENLPPLLREALQIMDSDDGEQAFLHGLESLIRGFEVQLTALLQIV strictly below 90?
label 1

Strictly below 90: is that where β-Galactosidase Activity, Cultured Without ATC of TetRrevAtc4-14: revTetR(BD) L51L D53Q V57V E58K L60L A61V R62P H63D (protein, Modified tetracycline repressor, revTetR(BD) L51L D53Q V57V E58K L60L A61V R62P H63D) MSRLDKSKVINSALELLNEVGIEGLTTRKLAQKLGVEQPTLYWHVKNKRALLQALAVKILVPDHDYSLPAAGESWQSFLRNNAMSFRRALLRYRDGAKVHLGTRPDEKQYDTVETQLRFMTENGFSLRDGLYAISAVSHFTLGAVLEQQEHTAALTDRPAAPDENLPPLLREALQIMDSDDGEQAFLHGLESLIRGFEVQLTALLQIV sits?
label 1

Please check: β-Galactosidase Activity, Cultured Without ATC for TetRrevAtc4-10: revTetR(BD) I59N L60F A61G (protein, Modified tetracycline repressor, revTetR(BD) I59N L60F A61G) MSRLDKSKVINSALELLNEVGIEGLTTRKLAQKLGVEQPTLYWHVKNKRALLDALAVENFGRHHDYSLPAAGESWQSFLRNNAMSFRRALLRYRDGAKVHLGTRPDEKQYDTVETQLRFMTENGFSLRDGLYAISAVSHFTLGAVLEQQEHTAALTDRPAAPDENLPPLLREALQIMDSDDGEQAFLHGLESLIRGFEVQLTALLQIV , strictly under 90 or not?
label 1

Decide: β-Galactosidase Activity, Cultured Without ATC of TetRrev28/16: revTetR(BD) L14L E15A L17G L25V (protein, Modified tetracycline repressor, revTetR(BD) L14L E15A L17G L25V) MSRLDKSKVINSALALGNEVGIEGVTTRKLAQKLGVEQPTLYWHVKNKRALLDALAVEILARHHDYSLPAAGESWQSFLRNNAMSFRRALLRYRDGAKVHLGTRPDEKQYDTVETQLRFMTENGFSLRDGLYAISAVSHFTLGAVLEQQEHTAALTDRPAAPDENLPPLLREALQIMDSDDGEQAFLHGLESLIRGFEVQLTALLQIV strictly below 90?
label 0

Dear colleague, could you confirm whether β-Galactosidase Activity, Cultured Without ATC of TetRrevAD2/2: revTetR(BD) L14I G21R A56V (protein, Modified tetracycline repressor, revTetR(BD) L14I G21R A56V) MSRLDKSKVINSAIELLNEVRIEGLTTRKLAQKLGVEQPTLYWHVKNKRALLDALVVEILARHHDYSLPAAGESWQSFLRNNAMSFRRALLRYRDGAKVHLGTRPDEKQYDTVETQLRFMTENGFSLRDGLYAISAVSHFTLGAVLEQQEHTAALTDRPAAPDENLPPLLREALQIMDSDDGEQAFLHGLESLIRGFEVQLTALLQIV falls below 90? Thanks.
label 0
